meta.source: PubChem BioAssay

Let's look at some molecules and their measured composite z-score.
- Assay protocol: small-molecule binders of probe aNOTCH2, primary screen, biochemical, small-molecule microarray, 635/667 nm fluorescence (AID 1121);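 further: score merges feature fluorescence read at 667 nm with its signal to noise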
- Cond: higher = more signal
Reply with the value as a number alone.

Examples with answers:
{"Molecule": "COCCOC(=O)N1C(=O)[C@@]2(c3cc(C#CCNC(N)=O)ccc31)[C@H](c1ccccc1OCCO)N1[C@H](c3ccccc3)[C@H](c3ccccc3)OC(=O)[C@H]1[C@@H]2C(=O)Nc1nc2ccccc2s1", "composite z-score": -0.0817}
{"Molecule": "C=CCN1C(=O)[C@@]2(O[C@@H](CCO)[C@H]([Si](C)(C)c3ccc(OC)cc3)[C@H]2C)c2cc(N(C=O)c3ccccc3)ccc21", "composite z-score": -0.0895}
{"Molecule": "CC(C)C(=C=CC[C@@H](O)c1ccc(CO)o1)CCO", "composite z-score": -0.11}
{"Molecule": "O=C(NCC(F)(F)F)[C@@H]1c2ccccc2C(=O)N(C2Cc3ccccc3C2)[C@H]1c1ccc(CO)cc1", "composite z-score": -0.0907}

Problem: # get_value(readout='composite z-score', item= CC(=O)OC(C/C=C\B1OC(C)(C)C(C)(C)O1)c1ccccc1 (stereo not given) )
Solution: -0.166

====

- Assay protocol: inhibitors of hydroxyurea-induced Chk1 phosphorylation, primary screen, imaging, HeLa, phospho-Chk1 antibody, percent positive cells (AID 1186)
- Cond: hydroxyurea-induced phospho-Chk1 immunofluorescence imaging, higher = more signal
Answer false if z-score is under -0.3, and true if it is -0.3 or more.

// known answers, use as guide
{"Molecule": "[N-]=[N+]=Nc1ccccc1[C@H]1OC(c2ccc(OCCCO)cc2)=N[C@@]1(Cc1ccccc1)C(N)=O", "Label value": "false"}
{"Molecule": "CC(C)(C)OC(=O)CC[C@@]12N=C(c3ccc(OCCCO)cc3)O[C@@H]1c1ccccc1CN(Cc1ccccc1)C2=O", "Label value": "false"}
{"Molecule": "CCOC(=O)C[C@H]1[C@H](OC(=O)c2ccc(-c3ccccc3)cc2)[C@@H](NC(=O)C2CCCCC2)c2cc(OCCCO)ccc2N1C(=O)c1ccc2ccccc2n1", "Label value": "false"}
{"Molecule": "O=C(NC1CC1)[C@@H]1c2ccccc2C(=O)N(Cc2ccccc2C(F)(F)F)[C@H]1c1ccc(CO)cc1", "Label value": "true"}
{"Molecule": "CC(C)C[C@@H]1NC(=O)[C@@H]2C[C@H](C(=O)NCCCCCNC(=O)CS)[C@H](c3cccc(OCCO)c3)N2C1=O", "Label value": "true"}

Problem: Quick check, z-score >= -0.3? `O=C1O[C@H](c2ccccc2)[C@H](c2ccccc2)N2[C@H]1[C@@H](C(=O)NC[C@H](O)c1ccccc1)[C@]1(C(=O)Nc3ccc(C#CC4(O)CCCCCC4)cc31)[C@H]2c1ccc(O)cc1`
Solution: true

Problem: Quick check, z-score >= -0.3? `COc1ccc([Si](C)(C)[C@H]2[C@H](CCO)O[C@@]3(C(=O)N(Cc4ccc(N5C(=O)c6cccc7cccc5c67)cc4)c4ccccc43)[C@@H]2C)cc1`
Solution: false

Problem: Quick check, z-score >= -0.3? `COCCOC(=O)N1C(=O)[C@@]2(c3ccccc31)[C@H](C(=O)Nc1nc3ccccc3s1)[C@H]1C(=O)O[C@H](c3ccccc3)[C@H](c3ccccc3)N1[C@@H]2c1ccc(O)cc1`
Solution: true

Problem: Quick check, z-score >= -0.3? `O=C(NCC(F)(F)F)[C@@H]1c2ccccc2C(=O)N(C2Cc3ccccc3C2)[C@H]1c1ccc(CO)cc1`
Solution: false
